- target_or_system: VEGFR-3 (Homo sapiens, UniProt P35916)
- Construct: expressed in transfected cells; host or cells: HEK293T cells, transient transfection with Fugene-6
- Sequence (P35916 25-1363, species assumed): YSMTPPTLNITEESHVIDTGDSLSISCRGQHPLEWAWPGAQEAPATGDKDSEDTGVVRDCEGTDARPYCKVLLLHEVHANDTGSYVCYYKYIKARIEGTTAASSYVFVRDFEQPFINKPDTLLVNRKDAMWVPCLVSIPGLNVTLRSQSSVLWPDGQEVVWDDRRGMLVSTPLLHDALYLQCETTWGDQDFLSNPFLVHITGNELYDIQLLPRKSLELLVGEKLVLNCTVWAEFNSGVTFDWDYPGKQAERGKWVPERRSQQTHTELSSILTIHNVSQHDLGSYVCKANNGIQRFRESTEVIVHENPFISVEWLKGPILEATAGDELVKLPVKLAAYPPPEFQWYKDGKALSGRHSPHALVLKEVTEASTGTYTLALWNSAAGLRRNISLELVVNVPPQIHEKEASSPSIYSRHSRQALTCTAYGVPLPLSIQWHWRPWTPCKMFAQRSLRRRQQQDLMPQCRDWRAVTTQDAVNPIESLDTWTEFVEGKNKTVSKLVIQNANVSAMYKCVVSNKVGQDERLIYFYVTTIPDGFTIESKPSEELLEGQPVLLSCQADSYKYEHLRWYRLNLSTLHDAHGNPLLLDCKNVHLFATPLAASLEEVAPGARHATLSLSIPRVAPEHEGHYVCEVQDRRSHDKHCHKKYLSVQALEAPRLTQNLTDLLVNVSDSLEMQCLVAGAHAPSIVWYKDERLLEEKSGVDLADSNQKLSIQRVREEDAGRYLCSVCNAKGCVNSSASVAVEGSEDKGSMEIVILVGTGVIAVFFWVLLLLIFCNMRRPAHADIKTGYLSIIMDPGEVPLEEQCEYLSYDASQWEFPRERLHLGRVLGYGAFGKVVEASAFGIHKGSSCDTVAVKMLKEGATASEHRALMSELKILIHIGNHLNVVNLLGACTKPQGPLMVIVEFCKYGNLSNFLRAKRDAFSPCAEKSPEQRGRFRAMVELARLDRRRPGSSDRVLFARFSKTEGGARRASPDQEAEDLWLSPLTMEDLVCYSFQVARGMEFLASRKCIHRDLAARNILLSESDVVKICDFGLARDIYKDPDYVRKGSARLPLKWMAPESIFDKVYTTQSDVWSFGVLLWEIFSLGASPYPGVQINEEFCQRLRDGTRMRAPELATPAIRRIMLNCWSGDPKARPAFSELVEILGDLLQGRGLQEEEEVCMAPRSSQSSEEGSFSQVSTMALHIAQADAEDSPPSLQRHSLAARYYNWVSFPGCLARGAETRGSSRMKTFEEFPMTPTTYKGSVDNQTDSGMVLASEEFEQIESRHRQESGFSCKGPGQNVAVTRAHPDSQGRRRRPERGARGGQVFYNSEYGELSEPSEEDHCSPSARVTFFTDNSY
- procedure_text: Ex vivo assay: VEGFR-3 autophosphorylation in HEK cells incubated with plasma of mice dosed p.o.
- Set-up: species or system male Balb/c mice
- assay_setup: HEK293, mouse; 6 h after single oral administration of 30 mg/kg to male Balb/c mice; transfected HEK cells incubated with plasma (10%); read-out: Ex vivo inhibition (%) At the time
What inhibition at 30 mg/kg was measured for each of the following?
Supply the numeric figure in %, leaving out any unit text.

For CCn1c(N)c(-c2nc(C)c[nH]2)c(=O)c2ccc(C#C[C@@](C)(O)COC)nc21 the compound record lists inhibition at 30 mg/kg as 86

For CCn1c(N)c(-c2ncc[nH]2)c(=O)c2ccc(C#CC3(O)CCC3)nc21 the compound record lists inhibition at 30 mg/kg as 23

For CCn1c(N)c(-c2ncc[nH]2)c(=O)c2ccc(C#CC(C)(O)c3ccccc3)nc21 (racemic) the compound record lists inhibition at 30 mg/kg as 37

For CCn1c(N)c(-c2ncc[nH]2)c(=O)c2ccc(C#CC(C)O)nc21 (racemic) the compound record lists inhibition at 30 mg/kg as 26

For CCn1c(N)c(-c2ncc[nH]2)c(=O)c2ccc(C#C[C@@](C)(O)COC)nc21 the compound record lists inhibition at 30 mg/kg as 83
